# credit: patent US11807625B2

Assay: PK of compound of Formula (Ia) after single subcutaneous dose of solution formulations in Wistar Han rats
Assay type: in vivo
Conditions: male, Wistar Han, rat, plasma, sc, 50 mg/kg, mean ± SD, n = 3 rats; SC 50 mg/kg; solution S, 500 mg/mL; read-out: AUC0-5376 h
Assay Endpoint: AUC(0-t) (µM·h)
Expressed in µM·h, but write only the number.

Query: AUC(0-t); subject: CC(C)(C#Cc1ccc(-c2ccc(Cl)c3c(NS(C)(=O)=O)nn(CC(F)(F)F)c23)c([C@H](Cc2cc(F)cc(F)c2)NC(=O)Cn2nc(C(F)(F)F)c3c2C(F)(F)[C@@H]2C[C@H]32)n1)S(C)(=O)=O [compound of Formula (Ia)] 861

====

Test: PK of compound of Formula (Ia) after single subcutaneous dose of solution formulations in Wistar Han rats
Assay type: in vivo
Conditions: male, Wistar Han, rat, plasma, sc, 50 mg/kg, 3696 h; individual rats; SC 50 mg/kg; solution S, 500 mg/mL
Assay Endpoint: concentration at 3696 h (µM)
Note: unit µM is implicit; provide only the numeric part.

# concentration at 3696 h lookup, item CC(C)(C#Cc1ccc(-c2ccc(Cl)c3c(NS(C)(=O)=O)nn(CC(F)(F)F)c23)c([C@H](Cc2cc(F)cc(F)c2)NC(=O)Cn2nc(C(F)(F)F)c3c2C(F)(F)[C@@H]2C[C@H]32)n1)S(C)(=O)=O 0.102

====

Experiment: PK of compound of Formula (Ia) after single subcutaneous dose of solution formulations in Wistar Han rats
Format: in vivo
Details: male, Wistar Han, rat, plasma, sc, 50 mg/kg, Wistar Han rats, SC 50 mg/kg, 400 mg/mL solution Z (3.13% poloxamer 188), 3.00 h, Mean n = 4
Assay Endpoint: concentration at 3 h (nM)
Return type: number; implicit unit nM.

Which concentration at 3 h value belongs to CC(C)(C#Cc1ccc(-c2ccc(Cl)c3c(NS(C)(=O)=O)nn(CC(F)(F)F)c23)c([C@H](Cc2cc(F)cc(F)c2)NC(=O)Cn2nc(C(F)(F)F)c3c2C(F)(F)[C@@H]2C[C@H]32)n1)S(C)(=O)=O ? 70.3

====

Experiment: PK of compound of Formula (Ia) after single subcutaneous dose of solution formulations in beagle dogs
Type: in vivo
Details: male, beagle, dog, plasma, sc, 12 mg/kg, mean ± SD, n = 3 dogs; SC 12 mg/kg; solution W, 400 mg/mL; read-out: AUC0-24 h
Assay Endpoint: AUC(0-t) (µM·h)
Enter your answer as a number in µM·h; do not include the unit.

Given the molecule CC(C)(C#Cc1ccc(-c2ccc(Cl)c3c(NS(C)(=O)=O)nn(CC(F)(F)F)c23)c([C@H](Cc2cc(F)cc(F)c2)NC(=O)Cn2nc(C(F)(F)F)c3c2C(F)(F)[C@@H]2C[C@H]32)n1)S(C)(=O)=O , what is its reported AUC(0-t)? 0.505

====

Experiment: PK of compound of Formula (Ia) after single subcutaneous dose of solution formulations in Wistar Han rats
Type: in vivo
Conditions: male, Wistar Han, rat, plasma, sc, 50 mg/kg, male Wistar Han rats, single SC 50 mg/kg, 400 mg/mL solution AA (6.25% poloxamer 188), mean ± SD, n = 4; read-out: AUC0-672 h
Assay Endpoint: AUC(0-t) (µM·h)
Give the value, in units of µM·h, as a plain number.

// returns reported AUC(0-t) for input CC(C)(C#Cc1ccc(-c2ccc(Cl)c3c(NS(C)(=O)=O)nn(CC(F)(F)F)c23)c([C@H](Cc2cc(F)cc(F)c2)NC(=O)Cn2nc(C(F)(F)F)c3c2C(F)(F)[C@@H]2C[C@H]32)n1)S(C)(=O)=O 98
